Values from patent US20200172549A1

assay: Dark cytotoxicity, MTT assay, AsPC-1; format: cell-based; conditions: human, AsPC-1 pancreatic cancer cells; 50 μM photosensitizer, 3 h, no light, 72 h incubation; read-out: Cell viability, Dark Cytotoxicity against AsPC-1
MEASUREMENT LABEL: viability at 50 μM (%)
Response body: numeric value in %, unit text excluded.

C=Cc1c(C)c2cc3nc(c(CC(=O)O)c4[nH]c(cc5nc(cc1[nH]2)C(C)=C5CC)c(C)c4C(=O)O)[C@@H](CCC(=O)O)[C@@H]3C [Compound 3, Chlorin e6]
100
C=Cc1c(C)c2cc3nc(c(CC(=O)OC)c4[nH]c(cc5nc(cc1[nH]2)C(C)=C5CC)c(C)c4C(=O)NCCOCCOCCNC(=O)CCCC(=O)Oc1ccc(/C=C/C(=O)CC(=O)/C=C/c2ccc(O)c(OC)c2)cc1OC)C(CCC(=O)OC)C3C (stereo not shown) [Compound 13, Chlorine e6-curcumin Conjugate (13)]
78.7
C=Cc1c(C)c2cc3nc(c(CC(=O)OC)c4[nH]c(cc5nc(cc1[nH]2)C(C)=C5CC)c(C)c4C(=O)NCCCCCCNC(=O)CCCC(=O)Oc1ccc(/C=C/C(=O)CC(=O)/C=C/c2ccc(O)c(OC)c2)cc1OC)C(CCC(=O)OC)C3C (stereo not shown) [Compound 10, Chlorine e6-curcumin Conjugate (10)]
78.8

Now look at this one.
Could you tell me which viability at 50 μM is on file for C=Cc1c(C)c2cc3nc(c(CC(=O)OC)c4[nH]c(cc5nc(cc1[nH]2)C(C)=C5CC)c(C)c4C(=O)NCCCOCCOCCOCCCNC(=O)CCCC(=O)Oc1ccc(/C=C/C(=O)CC(=O)/C=C/c2ccc(O)c(OC)c2)cc1OC)[C@@H](CCC(=O)OC)[C@@H]3C [Compound 16, Chlorine e6-curcumin Conjugate (16)] ? 84.1

###

assay: Dark cytotoxicity, MTT assay, MIA-PaCa-2; type: cell-based; conditions: human, MIA-PaCa-2 cells; 25 μM photosensitizer, 3 h, no light, 72 h incubation; read-out: Cell viability, Dark cytotoxicity against MIA-PaCa-2
Listing of recorded viability at 25 μM by entry.
# number only, unit % dropped from output

C=Cc1c(C)c2cc3nc(c(CC(=O)OC)c4[nH]c(cc5nc(cc1[nH]2)C(C)=C5CC)c(C)c4C(=O)NCCOCCOCCNC(=O)CCCC(=O)Oc1ccc(/C=C/C(=O)CC(=O)/C=C/c2ccc(O)c(OC)c2)cc1OC)C(CCC(=O)OC)C3C (stereo not shown) [Compound 13, Chlorine e6-curcumin Conjugate (13)]
96.3
C=Cc1c(C)c2cc3nc(c(CC(=O)O)c4[nH]c(cc5nc(cc1[nH]2)C(C)=C5CC)c(C)c4C(=O)O)[C@@H](CCC(=O)O)[C@@H]3C
99.6
C=Cc1c(C)c2cc3nc(c(CC(=O)OC)c4[nH]c(cc5nc(cc1[nH]2)C(C)=C5CC)c(C)c4C(=O)NCCCCCCNC(=O)CCCC(=O)Oc1ccc(/C=C/C(=O)CC(=O)/C=C/c2ccc(O)c(OC)c2)cc1OC)C(CCC(=O)OC)C3C (stereo not shown) [Compound 10, Chlorine e6-curcumin Conjugate (10)]
66.4

We next turn to a different compound, shown below.
Which viability at 25 μM value belongs to C=Cc1c(C)c2cc3nc(c(CC(=O)OC)c4[nH]c(cc5nc(cc1[nH]2)C(C)=C5CC)c(C)c4C(=O)NCCCOCCOCCOCCCNC(=O)CCCC(=O)Oc1ccc(/C=C/C(=O)CC(=O)/C=C/c2ccc(O)c(OC)c2)cc1OC)[C@@H](CCC(=O)OC)[C@@H]3C [Compound 16, Chlorine e6-curcumin Conjugate (16)] ? 101

###

system: AsPC-1 pancreatic cancer cells; assay: Phototoxicity (PDT), MTT assay, AsPC-1; assay type: cell-based; conditions: 3.12 μM photosensitizer, 3 h, 50 mW 0.09 J/cm^2 laser 100 sec, 72 h incubation
Readings of Cell viability, Phototoxicity against AsPC-1 for the listed compounds
Give the number; % is assumed, so skip it.

C=Cc1c(C)c2cc3nc(c(CC(=O)O)c4[nH]c(cc5nc(cc1[nH]2)C(C)=C5CC)c(C)c4C(=O)O)[C@@H](CCC(=O)O)[C@@H]3C
91.05

Any idea what Cell viability, Phototoxicity against AsPC-1 came out for C=Cc1c(C)c2cc3nc(c(CC(=O)OC)c4[nH]c(cc5nc(cc1[nH]2)C(C)=C5CC)c(C)c4C(=O)NCCCOCCOCCOCCCNC(=O)CCCC(=O)Oc1ccc(/C=C/C(=O)CC(=O)/C=C/c2ccc(O)c(OC)c2)cc1OC)[C@@H](CCC(=O)OC)[C@@H]3C [Compound 16, Chlorine e6-curcumin Conjugate (16)] on AsPC-1 pancreatic cancer cells? 87.29

###

experiment: Dark cytotoxicity, MTT assay, AsPC-1; type: cell-based; settings: human, AsPC-1 pancreatic cancer cells; 6.25 μM photosensitizer, 3 h, no light, 72 h incubation; read-out: Cell viability, Dark Cytotoxicity against AsPC-1
MEASUREMENT LABEL: viability at 6.25 μM (%)
Express it in %; write the number only.

Below: 3 compounds and their reported viability at 6.25 μM.
C=Cc1c(C)c2cc3nc(c(CC(=O)OC)c4[nH]c(cc5nc(cc1[nH]2)C(C)=C5CC)c(C)c4C(=O)NCCCOCCOCCOCCCNC(=O)CCCC(=O)Oc1ccc(/C=C/C(=O)CC(=O)/C=C/c2ccc(O)c(OC)c2)cc1OC)[C@@H](CCC(=O)OC)[C@@H]3C [Compound 16, Chlorine e6-curcumin Conjugate (16)]
103
C=Cc1c(C)c2cc3nc(c(CC(=O)OC)c4[nH]c(cc5nc(cc1[nH]2)C(C)=C5CC)c(C)c4C(=O)NCCCCCCNC(=O)CCCC(=O)Oc1ccc(/C=C/C(=O)CC(=O)/C=C/c2ccc(O)c(OC)c2)cc1OC)C(CCC(=O)OC)C3C (stereo not shown) [Compound 10, Chlorine e6-curcumin Conjugate (10)]
98.2
C=Cc1c(C)c2cc3nc(c(CC(=O)OC)c4[nH]c(cc5nc(cc1[nH]2)C(C)=C5CC)c(C)c4C(=O)NCCOCCOCCNC(=O)CCCC(=O)Oc1ccc(/C=C/C(=O)CC(=O)/C=C/c2ccc(O)c(OC)c2)cc1OC)C(CCC(=O)OC)C3C (stereo not shown) [Compound 13, Chlorine e6-curcumin Conjugate (13)]
108

Query compound follows.
I'd like to know its viability at 6.25 μM. The compound in question is `C=Cc1c(C)c2cc3nc(c(CC(=O)O)c4[nH]c(cc5nc(cc1[nH]2)C(C)=C5CC)c(C)c4C(=O)O)[C@@H](CCC(=O)O)[C@@H]3C` 101

###

# Lookup of reported Cell viability, Phototoxicity against AsPC-1 keyed by entry
tested on: AsPC-1 pancreatic cancer cells; assay: Phototoxicity (PDT), MTT assay, AsPC-1; assay type: cell-based; details: 25 μM photosensitizer, 3 h, 50 mW 0.09 J/cm^2 laser 100 sec, 72 h incubation
Provide only the numeric value, understood in %.

In the examples that follow, each entry is paired with its recorded Cell viability, Phototoxicity against AsPC-1.
C=Cc1c(C)c2cc3nc(c(CC(=O)OC)c4[nH]c(cc5nc(cc1[nH]2)C(C)=C5CC)c(C)c4C(=O)NCCOCCOCCNC(=O)CCCC(=O)Oc1ccc(/C=C/C(=O)CC(=O)/C=C/c2ccc(O)c(OC)c2)cc1OC)C(CCC(=O)OC)C3C (centres unmarked) [Compound 13, Chlorine e6-curcumin Conjugate (13)]
6.58
C=Cc1c(C)c2cc3nc(c(CC(=O)OC)c4[nH]c(cc5nc(cc1[nH]2)C(C)=C5CC)c(C)c4C(=O)NCCCCCCNC(=O)CCCC(=O)Oc1ccc(/C=C/C(=O)CC(=O)/C=C/c2ccc(O)c(OC)c2)cc1OC)C(CCC(=O)OC)C3C (centres unmarked) [Compound 10, Chlorine e6-curcumin Conjugate (10)]
26.11
C=Cc1c(C)c2cc3nc(c(CC(=O)OC)c4[nH]c(cc5nc(cc1[nH]2)C(C)=C5CC)c(C)c4C(=O)NCCCNC(=O)CCCC(=O)Oc1ccc(/C=C/C(=O)CC(=O)/C=C/c2ccc(O)c(OC)c2)cc1OC)C(CCC(=O)OC)C3C (centres unmarked) [Compound 7, Chlorine e6-curcumin Conjugate (7)]
10.35
C=Cc1c(C)c2cc3nc(c(CC(=O)O)c4[nH]c(cc5nc(cc1[nH]2)C(C)=C5CC)c(C)c4C(=O)O)[C@@H](CCC(=O)O)[C@@H]3C
37.32

We next turn to a different compound, shown below.
Can you share its Cell viability, Phototoxicity against AsPC-1? I mean this compound: C=Cc1c(C)c2cc3nc(c(CC(=O)OC)c4[nH]c(cc5nc(cc1[nH]2)C(C)=C5CC)c(C)c4C(=O)NCCCOCCOCCOCCCNC(=O)CCCC(=O)Oc1ccc(/C=C/C(=O)CC(=O)/C=C/c2ccc(O)c(OC)c2)cc1OC)[C@@H](CCC(=O)OC)[C@@H]3C [Compound 16, Chlorine e6-curcumin Conjugate (16)] 25.46
